- SUBJECT_OF_TEST: T1, human CD20 antigen (human, UniProt P11836 1-297)
- T1 construct: whole, on cells; also called Bp35; B1
- T1 sequence (looked up): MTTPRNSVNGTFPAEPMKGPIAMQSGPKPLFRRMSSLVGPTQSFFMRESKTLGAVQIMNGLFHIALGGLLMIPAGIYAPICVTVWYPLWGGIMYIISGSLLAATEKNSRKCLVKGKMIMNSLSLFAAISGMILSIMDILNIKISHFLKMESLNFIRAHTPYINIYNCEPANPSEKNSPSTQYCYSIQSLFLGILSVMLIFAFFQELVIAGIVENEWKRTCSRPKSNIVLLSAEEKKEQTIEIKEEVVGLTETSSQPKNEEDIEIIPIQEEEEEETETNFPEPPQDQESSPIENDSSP
- EXPERIMENT_DESCRIPTION: flow cytometry, EHEB cells (CD20 positive)
PROPERTY_MEASURED: Mean Fluorescence Intensity (MFI)
Answer with the figure and its unit, nothing else.

Past entries and their recorded results:
>  <BINDER>
optimized humanized mAb 1237 (antibody, V domains shown, detected with anti-human Ig Fc) VH: QVQLVQSGAEVKKPGSSVKVSCKASGYTFTSYNMHWVRQAPGQGLEWIGAIYPGNGDTSYNQKFKGKATITADKSTSTAYMELSSLRSDDTAVYYCARSTYYAGDWNFNNWGQGTLVTVSS VL: DIQMTQSPSSLSASVGDRVTITCRASSSVSYIHWFQQKPGKAPKPLIYAASSLQSGVPSRFSGSGSGTDYTLTISSLQPEDFATYYCQQWTSNPPTFGGGTKLEIK

>  <PROPERTY_MEASURED>
Mean Fluorescence Intensity (MFI)

>  <DATA_VALUE>
161 MFI

$$$$
>  <BINDER>
optimized humanized mAb 1590 (antibody, V domains shown) VH: QVQLVQSGAEVKKPGSSVKVSCKASGYTFTSYNMHWVRQAPGQGLEWIGAIYPGNGLTSYNQKFKGKATITADKSTSTAYMELSSLRSDDTAVYYCARSTYYAGDWNFNNWGQGTLVTVSS VL: DIQMTQSPSSLSASVGDRVTITCRASSSVSYIHWFQQKPGKAPKPLIYAASSLQSGVPSRFSGSGSGTDYTLTISSLQPEDFATYYCQQWTSNPPTFGGGTKLEIK

>  <PROPERTY_MEASURED>
Mean Fluorescence Intensity (MFI)

>  <DATA_VALUE>
429 MFI

$$$$

Consider now this further binder.
**Query** So what's the measured Mean Fluorescence Intensity (MFI) for this one? optimized humanized mAb 1652 (antibody, V domains shown) VH: QVQLVQSGAEVKKPGSSVKVSCKASGYTFTSYNMHWVRQAPGQGLEWIGAIYPGNGATSYNQKFKGKATITADKSTSTAYMELSSLRSDDTAVYYCARSTYYAGDWNFNNWGQGTLVTVSS VL: DIQMTQSPSSLSASVGDRVTITCRASSSVSYIHWFQQKPGKAPKPLIYAASSLQSGVPSRFSGSGSGTDYTLTISSLQPEDFATYYCQQWQSNPPTFGGGTKLEIK
**Result** 529 MFI
